TESTED TARGET: COI1 (Arabidopsis thaliana, UniProt O04197)
Construct: GST (N, cleaved yes); made in house; host or cells: Sf9 insect cells
PROTOCOL DESCRIPTION: Differential scanning fluorimetry (DSF) assay, COI1 alone
Assay type: binding
ASSAY CONDITIONS: DSF, COI1 alone, substance titrated
ASSAY ENDPOINT: shift in the melting point of COI1

>  <COMPOUND>
CC/C=C\C[C@H]1C(=O)CC[C@@H]1CC(=O)O (racemic) [racemic jasmonic acid, jasmonic acid]

>  <ASSAY ENDPOINT>
shift in the melting point of COI1

>  <MEASURED>
no shift

$$$$
>  <COMPOUND>
CC/C=C\C[C@@H]1C(=O)C=C[C@@H]1CCCCCCCC(=O)O [cis-OPDA, (+)-cis-12-oxo-phytodienoic acid]

>  <ASSAY ENDPOINT>
shift in the melting point of COI1

>  <MEASURED>
no shift

$$$$

====

TESTED TARGET: COI1-JAZ9 (Arabidopsis thaliana, UniProt O04197+Q8W4J8)
Sequence (Q8W4J8 218-238, one chain of several): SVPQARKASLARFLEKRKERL
PROTOCOL DESCRIPTION: DSF assay, COI1 with JAZ9 degron peptide (JAZP9)
Assay type: binding
ASSAY CONDITIONS: DSF, 1 μM tag-free COI1 with 3 μM JAZP9
ASSAY ENDPOINT: Kd
Be sure to follow the number with its unit.

Req: Name the recorded Kd for CCC1C=C(C(=O)N[C@H](C(=O)O)C(C)C)C2CCC(=O)C2C1 (stereo partly shown) .
Resp: 9.77 µM

====

TESTED TARGET: COI1-JAZ9 (Arabidopsis thaliana, UniProt O04197+Q8W4J8)
PROTOCOL DESCRIPTION: DSF assay, COI1 with JAZ9 degron peptide (JAZP9)
Assay type: binding
hey, just use MET if measured Kd is less than 3000 nM, otherwise NOT MET

Known results for molecules:
>  <MOLECULE>
CCC=CCC1C(=O)CCC1CC(=O)NC1(C(=O)O)CC1CC (centres unmarked)

>  <CLASSIFICATION>
NOT MET

$$$$
>  <MOLECULE>
CC[C@H]1C=C(C(=O)N[C@@]2(C(=O)O)C[C@@H]2CC)[C@H]2CCC(=NOC)[C@H]2C1

>  <CLASSIFICATION>
MET

$$$$
>  <MOLECULE>
CC[C@H]1C=C(C(=O)N[C@@]2(C(=O)O)C[C@@H]2CC)[C@H]2CCC(=O)[C@H]2C1

>  <CLASSIFICATION>
MET

$$$$

Req: Strictly below 3000 nM in Kd? `CC/C=C\C[C@@H]1C(=O)CC[C@@H]1CC(=O)N[C@H](C(=O)O)[C@@H](C)CC`
Resp: NOT MET

====

TESTED TARGET: COI1-JAZ1 (Arabidopsis thaliana, UniProt O04197+Q9LMA8, DEL221-253)
Construct: GST (N, cleaved yes); made in house; host or cells: Sf9 insect cells (COI1-ASK1); JAZ peptide by chemical synthesis
PROTOCOL DESCRIPTION: biochemical
Assay type: binding
ASSAY CONDITIONS: read-out: Kd COI1-JAZ1
Listing: Kd of selected compounds
Reply numerically in nM, unit not repeated.

Req: Can you look up Kd on COI1-JAZ1 (Arabidopsis thaliana, UniProt O04197+Q9LMA8, DEL221-253) for `CC[C@H]1C=C(C(=O)N[C@@]2(C(=O)O)C[C@@H]2CC)[C@H]2CCC(=NOC)[C@H]2C1` ?
Resp: 2310

====

TESTED TARGET: GST-COI1 (Arabidopsis thaliana)
Sequence (O04197 1-592): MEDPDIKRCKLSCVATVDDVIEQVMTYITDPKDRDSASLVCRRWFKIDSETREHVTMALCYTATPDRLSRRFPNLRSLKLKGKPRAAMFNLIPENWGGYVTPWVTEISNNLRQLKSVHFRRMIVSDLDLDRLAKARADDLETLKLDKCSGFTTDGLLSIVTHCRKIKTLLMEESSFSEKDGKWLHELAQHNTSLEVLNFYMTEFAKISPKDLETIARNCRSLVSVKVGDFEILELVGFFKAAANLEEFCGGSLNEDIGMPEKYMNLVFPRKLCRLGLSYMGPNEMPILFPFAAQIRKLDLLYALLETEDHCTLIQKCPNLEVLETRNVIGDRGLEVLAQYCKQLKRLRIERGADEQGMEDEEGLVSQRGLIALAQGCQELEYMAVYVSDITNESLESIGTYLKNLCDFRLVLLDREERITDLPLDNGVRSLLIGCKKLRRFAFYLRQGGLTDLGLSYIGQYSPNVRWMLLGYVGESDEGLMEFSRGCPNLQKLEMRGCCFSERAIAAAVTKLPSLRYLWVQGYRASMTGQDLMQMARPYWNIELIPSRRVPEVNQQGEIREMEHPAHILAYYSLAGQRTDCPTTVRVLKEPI
Sequence (Q39255 1-160 partner): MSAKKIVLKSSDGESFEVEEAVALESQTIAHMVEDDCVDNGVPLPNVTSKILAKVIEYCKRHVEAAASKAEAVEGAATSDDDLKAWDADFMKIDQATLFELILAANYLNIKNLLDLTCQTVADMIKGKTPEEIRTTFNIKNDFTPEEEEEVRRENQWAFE
ASSAY ENDPOINT: Kd (µM)
Reply numerically in µM, unit not repeated.

Req: Name the recorded Kd for `CC/C=C\C[C@@H]1C(=O)CC[C@@H]1CC(=O)N[C@H](C(=O)O)[C@@H](C)CC` .
Resp: 11

====

TESTED TARGET: COI1 (Arabidopsis thaliana)
Construct: GST (N, cleaved yes); made in house; host or cells: Sf9 insect cells
PROTOCOL DESCRIPTION: Differential scanning fluorimetry (DSF) assay, COI1 alone
Format: binding
ASSAY CONDITIONS: read-out: Kd COI1; DSF, 1 μM tag-free COI1, ΔTm dose-response curve fitting
Description: COR/COR-MO/CFA-Ile were dissolved in DMSO, (3R,7S)/(3R,7R)-JA-Ile and cis-OPDA were dissolved in ethanol, JA was dissolved in sterilized water to generate 10 mM stock solutions and diluted with corresponding solvent for preparation of 100 μM and 1 mM stock solutions, respectively. JAZ1/9 peptides were dissolved in sterilized water to generate 10 mM stock solutions and diluted to prepare 100 μM stock solutions. […]
ASSAY ENDPOINT: pKd
Answer as the number alone; pKd is minus log10 of concentration in mol/L.

Req: Name the recorded pKd for CCC1C=C(C(=O)N[C@H](C(=O)O)C(C)C)C2CCC(=O)C2C1 (stereo partly shown) .
Resp: 4.55

====

TESTED TARGET: COI1-JAZ1 (Arabidopsis thaliana, UniProt O04197+Q9LMA8, DEL221-253)
Construct: GST (N, cleaved yes); made in house; host or cells: Sf9 insect cells (COI1-ASK1); JAZ peptide by chemical synthesis
PROTOCOL DESCRIPTION: biochemical
Format: binding
ASSAY CONDITIONS: read-out: Kd COI1-JAZ1
ASSAY ENDPOINT: Kd (nM)
Reply numerically in nM, unit not repeated.

Solved cases below.
>  <STRUCTURE STRING>
CC/C=C\C[C@@H]1C(=O)CC[C@@H]1CC(=O)N[C@H](C(=O)O)[C@@H](C)CC

>  <UNIT TEXT>
nM

>  <Kd>
17700

$$$$
>  <STRUCTURE STRING>
CC[C@H]1C=C(C(=O)N[C@H](C(=O)O)[C@@H](C)CC)[C@H]2CCC(=O)[C@H]2C1

>  <UNIT TEXT>
nM

>  <Kd>
2660

$$$$

Field: next molecule
Req: Name the recorded Kd for `CC[C@H]1C=C(C(=O)N[C@@]2(C(=O)O)C[C@@H]2CC)[C@H]2CCC(=O)[C@H]2C1` .
Resp: 600

Data credit: paper PMC10770490
